Value source: patent US20110105397A1

Target: T1, human corticotrophin releasing hormone receptor type 2 (CRHR2) (human, UniProt Q13324 1-411)
T1 sequence (looked up): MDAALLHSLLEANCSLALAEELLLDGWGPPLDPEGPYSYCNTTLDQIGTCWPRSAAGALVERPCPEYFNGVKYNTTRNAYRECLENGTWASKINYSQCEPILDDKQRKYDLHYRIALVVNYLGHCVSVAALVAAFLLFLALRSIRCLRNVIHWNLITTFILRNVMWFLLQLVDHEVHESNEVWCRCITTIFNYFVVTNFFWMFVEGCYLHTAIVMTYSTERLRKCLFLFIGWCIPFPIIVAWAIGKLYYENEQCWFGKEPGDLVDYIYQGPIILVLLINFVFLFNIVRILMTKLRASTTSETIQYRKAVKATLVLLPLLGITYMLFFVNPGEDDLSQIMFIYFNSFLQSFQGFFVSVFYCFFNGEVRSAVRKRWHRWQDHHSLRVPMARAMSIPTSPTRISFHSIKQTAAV
Assay: cell-based or functional assay
Where no end group is shown, it is not given here.
Reported Metric: pA50

- Binder: "TKFTLSLDVPTNIMNLLFNIAKAKNLRAQAAACAHLMAQI-NH2 [Cys-variant stresscopin-like peptide SEQ ID NO: 34]"
  pA50: "~6.32 -log10(M)"
- Binder: "TKFTLSLDVPTNIMCLLFNIAKAKNLRAQAAANAHLMAQI (NES-PEG (about 20 kDa) on Cys 15; C-terminal amide (-NH2)) [Pegylated Cys-variant stresscopin-like peptide with NES linker and PEG about 20 kDa SEQ ID NO: 69]"
  pA50: "7.45 -log10(M)"
- Binder: "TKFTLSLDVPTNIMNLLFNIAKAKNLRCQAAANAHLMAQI-NH2 (not fully specified (residue 28); also: PEG with maleimide at both ends, peptide chains per PEG not given here) [Pegylated Cys-variant stresscopin-like peptide, NES-PEG MW20000 & DOUBLE-ENDED, SEQ ID NO: 98]"
  pA50: "9.5 -log10(M)"

TKFTLSLDVPTNIMNLLCNIAKAKNLRAQAAANAHLMAQI-NH2 [Cys-variant stresscopin-like peptide SEQ ID NO: 19] yielded pA50 of 8.01 -log10(M)

Input TKFTLSLDVPTNIMNLLFNIAKAKNLRAQAAANAHLMACI-NH2 [Cys-variant stresscopin-like peptide SEQ ID NO: 40] . Output pA50: 9.08 -log10(M)

Reported pA50 ( TKFCLSLDVPTNIMNLLFNIAKAKNLRAQAAANAHLMAQI (NES-PEG (about 20 kDa) on Cys 4; C-terminal amide (-NH2)) [Pegylated Cys-variant stresscopin-like peptide with NES linker and PEG about 20 kDa SEQ ID NO: 58] ) = ~7.14 -log10(M)

Record summary for TKFTLSLDVPTCIMNLLFNIAKAKNLRAQAAANAHLMAQI-NH2 [Cys-variant stresscopin-like peptide SEQ ID NO: 13] : reported pA50 = 9.59 -log10(M)

Form: binder = TKFTLSLDVPTNIMNLLFNCAKAKNLRAQAAANAHLMAQI-NH2 [Cys-variant stresscopin-like peptide SEQ ID NO: 21] ; pA50 = 8.75 -log10(M)

# pA50 (binder: TKFTLSLDVPTNICNLLFNIAKAKNLRAQAAANAHLMAQI (NES-PEG (about 20 kDa) on Cys 14; C-terminal amide (-NH2)) [Pegylated Cys-variant stresscopin-like peptide with NES linker and PEG about 20 kDa SEQ ID NO: 68] ) is ~6.96 -log10(M)

The value of pA50 measured for the binder TKFTCSLDVPTNIMNLLFNIAKAKNLRAQAAANAHLMAQI (NES-PEG (about 20 kDa) on Cys 5; C-terminal amide (-NH2)) [Pegylated Cys-variant stresscopin-like peptide with NES linker and PEG about 20 kDa SEQ ID NO: 59] turned out to be ~7.22 -log10(M)

Reported pA50 ( TKFTLSLDVPTNIMNLLFNIAKAKNLRACAAANAHLMAQI (NES-PEG (about 20 kDa) on Cys 29; C-terminal amide (-NH2)) [Pegylated Cys-variant stresscopin-like peptide with NES linker and PEG about 20 kDa SEQ ID NO: 83] ) = 7.91 -log10(M)
